experiment: label from the status in PepcDB records
readout_type: protein production

protein production for `MFLLSGDPCFKTPPSTAKSISIPGQDSSLQLTCKGGGTSSGGSSTNSLTGSRPPKARPTILSSGLPEEPDQNLSSPEEVFHSGHSRNSSYASQQSKISGYSTEHSRSSSLSDLTHRRNTSTSSSASGGLGMTVEGPEGSEREHRPPEKPPRPPRPLHLSDRSFRRKKDSVESHPTWVDDTRIDADAIVEKIVQSQDFTDGSNTEDSNLRLFVSRDGSATLSGIQLATRVSSGVYEPVVIESH` ? failed

What about `LGVVPEVRDWFTLGDHRFLVMDFLEGRPLNSFFAERHPLLTPDPEPDAVAAYTAWALRIHRAVEQAVHAVHARGIVFNDLHVFNIMVAPDEESVSLLDFEAAAPIEEN` ? failed

What about `MEGQENKVLFGLENVHYATYSETDGVITYDTPKPLPGGVEISVEPQGDMIKFYADNIVYYQAPNNQGYEGTLTIASIPEGFATDCLGEELDTVDGVLTEKSDAKPKPFALLFEFDGDVKSVRQVLYNCTASRPTVASSTLEHHHHHH` ? not failed

What about `MADIINNIVGGRYYILELIGRGGSAIVYKARDIHNGGIYALKKYITSDPANRKRLLEGMERELEVLKNCTHPVLPKIFDLIKIEDAFFLVMEYIDGIDLKKYVDEYGTLSTKMLIKVMEQVCSGFYYLHSLSPAIVYRDLKPANIILCKDGRIKLIDFGIAKRYRTDIDVDKLALGSKGFAAPEQFGDSKGKGLYNTDIRADIYGIGTTMYYLKTAKTYNSVPGSKSLYSFKDYFKTSHKLRKIIKKCTKNNPDLRYQSCIEILCSIKTLHIIGK` ? failed

What about `MAIDTNSSTPLVSVITPTYNRPNYLQAALTSAVRQTYSHIEIIVCDNCSPQNPQAIVDSFDDSRIRFFRNSSNMGMFANTIKAFKMARGKYVACLLDDDLWEEDFLEKLVPPLEANPNLALAFCDHYIMDANGNIDDALTEEYSRSYKRVDLPEGIYQPFYRMGLVDRSVSTATAAVMRRDAIAWDAIPAEVGGSWDIYLNYLCCRSGLGAYFYPEKLTRYRVHEQTETMLSGKRDAQAKIRKAQADMFCYEQFMADERLQELKPYFQQQWAHVSTTLGIGFMRSKQMKLARSYFWRSLKQSLKLRTMAGLMLSFTPPTIASRF` ? failed

What about `MASADKLINTDVPEKDVFAFHFLQSLSNLRKQNPFDTPDQKNYRVRKIKKAAYVSMARAAGGSSRLWSRALLRRADKDDNKIVRFSRRKWKISSKRRRSNQRAPVVEEAAERLRNLVPGGGGMETSKLMEETAHYIKCLSMQVKVMQCLVDGLSPK` ? failed

Consider now this further sequence.
protein production for `VPRIAEVRDAAEPSSEEQRARHVRMLEAAIELATEKELARVQMHEVAKRAGVAIGTLYRYFPSKTHLFVAVMVDQIDRMGVGFKKSAPPGESPQDAVYNVLVRATRGLLRRPALSTAMIQSTSTANVASVPDAGKVDRAFRQIMLDAAGIEHPTEEDLTALRLLVQLWFGVIQSCLNGRVSIPDAESDIRRACDLLLVNLSHR` ? not failed
